Tested on: yellow fever mosquito (Aedes aegypti)
Assay: whole plant or invertebrate
Type: in vivo
Details: 48 h, larval mortality visually assessed after 2 days, read-out: mortality in comparison with untreated controls
# mortality at 800 ppm per record follows
Metric: mortality at 800 ppm

{"columns": ["Record smiles", "Reported value"],
 "data": [
  ["CCn1nc(-c2ccc(/C=N/NC(=S)Nc3ccccc3C(C)C)cc2)cc1NC(=O)c1ccc(OC(F)(F)F)cc1", "≥ 50%"],
  ["CC(C)c1ccccc1N1C(=O)CS/C1=N\\N=C\\c1ccc(-c2cc(NC(=O)c3ccc(OC(F)(F)F)cc3)[nH]n2)cc1", "≥ 50%"],
  ["CC(C)c1ccccc1N1C(=O)CS/C1=N\\N=C\\c1ccc(-c2cc(NC(=N)c3ccc(OC(F)(F)F)cc3)n(C)n2)cc1", "≥ 50%"],
  ["CC(C)c1ccccc1NC(=S)N/N=C/c1ccc(-c2cc(NC(=N)c3ccc(OC(F)(F)F)cc3)n(C)n2)cc1", "≥ 50%"],
  ["CC(C)c1ccccc1NC(=S)N/N=C/c1ccc(-c2cc(NC(=O)c3ccc(OC(F)(F)F)cc3)n(C)n2)cc1", "≥ 50%"],
  ["CC(C)c1ccccc1N1C(=O)CS/C1=N\\N=C\\c1ccc(-c2cc(C(=O)Nc3ccc(OC(F)(F)F)cc3)n(C)n2)cc1", "≥ 50%"],
  ["CCn1nc(-c2ccc(NC(=O)O[C@@H]3O[C@@H](C)[C@H](OC)[C@@H](OC)[C@H]3OC)cc2)cc1NCc1ccc(OC(F)(F)F)cc1", "≥ 50%"],
  ["CC(C)c1ccccc1NC(=S)N/N=C/c1ccc(-c2cc(NC(=O)c3ccc(OC(F)(F)F)cc3)[nH]n2)cc1", "≥ 50%"]
]}

* * *

System: tobacco budworm (Heliothis virescens)
Test: Action on tobacco budworm (Heliothis virescens), microtiter plate diet test
Format: in vivo
Details: 120 h, egg and larval mortality after 5 days, read-out: mortality in comparison with untreated controls
# mortality at 800 ppm per record follows
Metric: mortality at 800 ppm

{"columns": ["Record smiles", "Reported value"],
 "data": [
  ["CC(C)c1ccccc1NC(=S)N/N=C/c1ccc(-c2cc(NCc3ccc(OC(F)(F)F)cc3)n(C)n2)cc1", "≥ 75%"],
  ["CCn1nc(-c2ccc(NC(=O)O[C@@H]3O[C@@H](C)[C@H](OC)[C@@H](OC)[C@H]3OC)cc2)cc1NCc1ccc(OC(F)(F)F)cc1", "≥ 75%"],
  ["CC(C)c1ccccc1N1C(=O)CS/C1=N\\N=C\\c1ccc(-c2cc(NC(=O)c3ccc(OC(F)(F)F)cc3)[nH]n2)cc1", "≥ 75%"],
  ["CC(C)c1ccccc1NC(=S)N/N=C/c1ccc(-c2cc(OCc3ccc(OC(F)(F)F)cc3)n(C)n2)cc1", "≥ 75%"],
  ["CC(C)c1ccccc1NC(=S)N/N=C/c1ccc(-c2cc(NC(=O)c3ccc(OC(F)(F)F)cc3)[nH]n2)cc1", "≥ 75%"],
  ["CCn1nc(-c2ccc(/C=N/O[C@@H]3O[C@@H](C)[C@H](OC)[C@@H](OC)[C@H]3OC)cc2)cc1NC(=O)c1ccc(OC(F)(F)F)cc1", "≥ 75%"]
]}

* * *

Test system: tobacco budworm (Heliothis virescens)
Experiment: Action on tobacco budworm (Heliothis virescens), microtiter plate diet test
Format: in vivo
Settings: 120 h, egg and larval mortality after 5 days, read-out: mortality in comparison with untreated controls
Metric: mortality at 800 ppm

{"columns": ["Compound", "Tested on", "Reported value"],
 "data": [
  ["CC(C)c1ccccc1N1C(=O)CS/C1=N\\N=C\\c1ccc(-c2cc(C(=O)Nc3ccc(OC(F)(F)F)cc3)n(C)n2)cc1 [Compound C-47]", "tobacco budworm (Heliothis virescens)", "≥ 75%"],
  ["Cc1c(-c2ccc(/C=N/NC(=S)Nc3ccccc3C(C)C)cc2)nn(C)c1NC(=O)c1ccc(C(F)(F)F)cc1 [Compound C-15]", "tobacco budworm (Heliothis virescens)", "≥ 75%"],
  ["CC(C)c1ccccc1/N=C1\\SCC(=O)N1/N=C/c1ccc(-c2cc(OCc3ccc(OC(F)(F)F)cc3)n(C)n2)cc1 [Compound C-12]", "tobacco budworm (Heliothis virescens)", "≥ 75%"]
]}
